This section presents molecules with their documented GI50 values.
# Tested on: HCC 2998
# assay method text: NCI tumour cell line growth inhibition, 48 h
The source made the active and inactive calls. Rule as the data show it: active = GI50 up to about 1.1 µM and inactive = higher.

| molecule | GI50 |
| --- | --- |
| COc1cccc2c1OCC1Cc3ccccc3OC21 (stereo unspecified) | 51.6 µM (inactive) |
| CC1Oc2cc3c(-c4c(O)cc(O)c5c(O)c6c(cc45)OC(C)C(C)C6=O)c(O)cc(O)c3c(O)c2C(=O)C1C (stereo unspecified) | 0.281 µM (active) |
| COC(=O)C1=CC2OC1(C)C1(CC1)C2=O (stereo unspecified) | 18.3 µM (inactive) |
| Fc1cccc(F)c1C1SCC2=Nc3ccccc3CN21 (stereo unspecified) | > 100 µM (inactive) |
| C=C1C(=O)O[C@@H]2C[C@@H](C)[C@@H]3C=CC(=O)[C@@]3(C)[C@@H](OC(=O)CC(=O)O[C@H]3[C@@H]4C(=C)C(=O)O[C@@H]4C[C@@H](C)[C@@H]4C=CC(=O)[C@]43C)[C@H]12 | 0.146 µM (active) |
| CN(C)CCCNC(=O)c1cc(NS(=O)(=O)c2ccc3c(c2)C(=O)c2ccccc2C3=O)cn1C | 24.5 µM (inactive) |
| N/C(COc1ccc(Cl)cc1)=N\NC(=O)c1ccncc1 | > 100 µM (inactive) |
| CC1CC2C3CC(F)C4=CC(=O)C=CC4(C)C3(F)C(O)CC2(C)C1(O)C(=O)CO (stereo unspecified) | > 100 µM (inactive) |
| Nc1ccc(-c2nc3cc(F)ccc3s2)cc1Br | < 0.01 µM (active) |
| CC1(C)CC(=O)C(=[N+]=[N-])C(=O)C1 | > 100 µM (inactive) |
| C=CCO/N=C(\OC(=O)c1ccc([N+](=O)[O-])cc1)c1ccccc1 | > 100 µM (inactive) |
| Clc1ccc(-c2nn3c(CCCCCCCCc4nnc5sc(-c6ccc(Cl)cc6)nn45)nnc3s2)cc1 | 48.3 µM (inactive) |
| NC(=O)c1c2c(cc3c(=O)c4ccccc4[nH]c13)CCCC2 | > 100 µM (inactive) |
| COC(=O)/C(C#N)=C/c1cc(C(C)(C)C)c(O)c(C(C)(C)C)c1 | 2.7 µM (inactive) |
| CCOC(=O)/C(=C\NC(=S)Nc1ccc(Cl)c(Cl)c1)C(=O)c1ccccc1 | 17.3 µM (inactive) |
| COC1=CC(=O)c2c(c(COP(=O)(N(C)CCBr)N(C)CCBr)cn2C)C1=O | 0.0373 µM (active) |
| CC1=NN(c2nc(N)nc(CCl)n2)C(C)(C)C1 | 27.1 µM (inactive) |
| C[C@H]1[C@H](C)N1CC(O)Cn1ccnc1[N+](=O)[O-] (stereo partly specified) | > 100 µM (inactive) |
| CCN1C(NN)=NS(=O)(=O)c2ccccc21 | > 100 µM (inactive) |
| O=C(c1ccco1)N(Cc1cccnc1)C(=S)N(Cc1cccnc1)C(=O)c1ccco1 | 17.5 µM (inactive) |
| CC1C2(C)OC(=N)C(C#N)(C(c3ccccc3)O2)C1(C#N)C#N (stereo unspecified) | 10.8 µM (inactive) |

----------
# System: SK-MEL-5
# assay method text: NCI tumour cell line growth inhibition, 48 h
Calls of active or inactive are those of the source. Rule as the data show it: active = GI50 up to about 1.1 µM and inactive = higher.
value type: GI50

| compound | reported measurement |
| --- | --- |
| C[N+](C)(CCCCCC[N+](C)(C)CCCN1C(=O)c2cccc3cccc(c23)C1=O)CCCN1C(=O)c2cccc3cccc(c23)C1=O | > 100 µM (inactive) |
| COc1ccc2c(c1)OCC1Cc3cc4c(cc3OC21)OCO4 (centres undefined) | 16.8 µM (inactive) |
| CN1C=C(C(N)=O)C2CC(O)[C@@](NC(=O)CS(N)(=O)=O)(C(=O)O)C2C1 (some centres undefined) | 6.31 µM (inactive) |
| C=CC(=C)CCC(Br)C(C)(C)Cl (centres undefined) | > 100 µM (inactive) |
| CN(C)CCNC(=O)Cn1ccc(=O)c2cc([N+](=O)[O-])ccc21 | > 100 µM (inactive) |
| C/C=C\C(CC(=O)OC)CC(=O)N(CCC1CN(S(=O)(=O)C(F)(F)F)c2ccccc21)Cc1ccc(OC)cc1OC (centres undefined) | > 100 µM (inactive) |
| CC(=O)Oc1c(C)c2c(c3ncccc13)OC(C)C2 (centres undefined) | 14.5 µM (inactive) |
| COC(=O)c1ccccc1NC(=O)C(=O)Cc1nc2c3c(ccc2nc1O)C(=O)c1ccccc1C3=O | 2.99 µM (inactive) |
| CC(=O)Oc1c(N2CCCCC2)c(C(=O)c2ccccc2)c(O)c2ccn(N(C)C)c12 | 15.9 µM (inactive) |

----------
This section presents compounds with their documented GI50 values.
# Tested on: SK-MEL-28
# assay method text: NCI tumour cell line growth inhibition, 48 h
Activity calls are given as the source filed them. Rule as the data show it: active = GI50 up to about 1.1 µM and inactive = higher.

| compound | subject of test | GI50 |
| --- | --- | --- |
| O=C1C2=C(CCC2)Nc2cccc3ncn1c23 | SK-MEL-28 | 61.9 µM (inactive) |
| COC(=O)/C(C#N)=C/c1cc(C(C)(C)C)c(O)c(C(C)(C)C)c1 | SK-MEL-28 | 2.62 µM (inactive) |
| O=C(CN(c1ccccc1)c1ccccc1)N1c2ccccc2C2C=CC=CC21 (stereo not given) | SK-MEL-28 | 30.4 µM (inactive) |
| COCc1nc2c(OC)c(-c3nc4ccc(N5CCN(C)CC5)nc4[nH]3)cc(OC)c2[nH]1 | SK-MEL-28 | 28 µM (inactive) |
| COC(=O)C1=C(C)C(=O)[C@]23C(CCCC[C@H]12)C(=O)[C@H](C(=O)OC)C3C (stereo not given in full) | SK-MEL-28 | > 100 µM (inactive) |
| CC(=O)OCC1OC(N2C(=O)[C@@H](Oc3ccccc3)[C@H]2/C=C/c2ccccc2)C(OC(C)=O)C(OC(C)=O)C1OC(C)=O (stereo not given in full) | SK-MEL-28 | > 100 µM (inactive) |
| CC(C)OC1OC(CO)C(O)CC1n1cc(F)c(=O)[nH]c1=O (stereo not given) | SK-MEL-28 | > 100 µM (inactive) |
| C=C(Cl)c1c(OC)cccc1OCc1ccccc1 | SK-MEL-28 | > 100 µM (inactive) |
| CC(=O)NC1=C(NCCC(C)C)C(=O)c2ccccc2C1=O | SK-MEL-28 | > 50 µM (inactive) |
| NC(=O)SCC(=O)Nc1ccc2cccc3c2c1CC3 | SK-MEL-28 | > 10 µM (inactive) |

----------
This section presents molecules with their documented GI50 values.
# Test system: SF-539
# assay method text: NCI tumour cell line growth inhibition, 48 h
Activity calls are given as the source filed them. Cut-off read from the data, not from the text of the source: active = GI50 up to about 1.1 µM and inactive = higher. Where a SMILES comes first, the peptide text is derived from it. The star is where a group is joined. Boc = CC(C)(C)OC(=O)*

| molecule | subject of test | GI50 |
| --- | --- | --- |
| C=C(Br)CNCC(=C)Br | SF-539 | > 100 µM (inactive) |
| COc1ccc(/C=C2\CCS(=O)(=O)c3ccccc3C2=O)cc1 | SF-539 | 21.1 µM (inactive) |
| CCOC(=O)Oc1cc2c(ccn2C)c2c1c1ccccc1n2C(=O)OCC | SF-539 | > 100 µM (inactive) |
| c1ccc(/C(=N/Nc2ccccn2)c2ncccn2)cc1 | SF-539 | 3.52 µM (inactive) |
| N#CC(C#N)=NNc1ccc2cn[nH]c2c1 | SF-539 | 70.8 µM (inactive) |
| O=C(c1ccco1)N(Cc1cccnc1)C(=S)N(Cc1cccnc1)C(=O)c1ccco1 | SF-539 | 11.1 µM (inactive) |
| Cc1nn(C(=O)c2ccc(Cl)cc2)c2c1C(/C=C/c1ccccc1)SC(=N)N2 (stereo not given) | SF-539 | > 10 µM (inactive) |
| CC(C)C/N=C(\N)N=C(N)N | SF-539 | > 100 µM (inactive) |
| O=C(Nc1ccc(Cl)c(Cl)c1)C1C(=O)N(c2ccc(Cl)c(Cl)c2)C(=O)/C1=N\O (stereo not given) | SF-539 | > 100 µM (inactive) |
| CCOC(=O)C(CC(C)C)NC(=O)C(Cc1ccccc1)NC(=O)CNC(=O)OC(C)(C)C (stereo not drawn) (Boc-Gly-Phe-Leu-OEt; configuration not given here) | SF-539 | 13.5 µM (inactive) |

----------
# System: DMS-114
# assay method text: NCI tumour cell line growth inhibition, 48 h
Active and inactive are the calls of the source. No stated cut-off is given here; in the data, active = GI50 up to about 1.1 µM and inactive = higher.
Outcome codes: T = active, F = inactive

| compound | category label |
| --- | --- |
| O=C(CC(=O)N1N=C(c2ccccc2)C(/N=N/c2ccc(Cl)cc2)C1=O)Nc1ccccc1Cl (configuration not stated) | F |
| Cc1cccc(C)c1NC(=O)CCC(=O)NNc1nnc(C)n1N | F |
| CCCCCCCCC/C=C1\CCC(CN(C)C)C1=O (configuration not stated) | F |
| CC1(C)CC(=O)C(=[N+]=[N-])C(=O)C1 | F |
| COc1ccc(C2c3cc(OC)c(OC)cc3C(Cc3ccc([N+](=O)[O-])cc3)C2c2ccc([N+](=O)[O-])cc2)cc1OC (configuration not stated) | F |
| Nc1ccc(S(=O)(=O)Nc2cnc3c(Cl)cccc3n2)cc1 [CHLORSULFAQUINOXALINE] | F |
| N#CC(C(=O)CCC(=O)C(C#N)c1ccccc1)c1ccccc1 (configuration not stated) | F |
| NC(=O)c1c2c(cc3c(=O)c4ccccc4[nH]c13)CCCC2 | F |
| N=C(N)n1ncc(Cl)c(Cl)c1=O | F |
| C/C(=N\N=C(/[SeH])N1CC2CCC(CC2)C1)c1ccccn1 | T |
| [N-]=[N+]=Nc1cc(=O)oc2ccccc12 | F |
| COc1cccc(/C=C/c2cc(OC)c(OC)c(OC)c2)c1 | F |
| COC(=O)c1c/c(=N\NC(=O)CC(=O)Nc2ccccc2OC)c2ccccc2o1 | F |
| CC1CC2C3CC(F)C4=CC(=O)C=CC4(C)C3(F)C(O)CC2(C)C1(O)C(=O)CO (configuration not stated) | F |
| COC(=O)C1C(=O)N(CCc2c[nH]c3ccccc23)C[C@@H]2CCC(=O)C[C@H]12 (some centres not stated) | F |
| Brc1ccc(N2C[N+](c3ccc(Br)cc3)=NC(c3ccccc3)=N2)cc1 | F |
| Cc1cc(O)nc(NN2C(Cl)C(=O)C2c2ccccc2O)n1 (configuration not stated) | F |
| COc1cc2c(oc(=O)c3cc4ccoc4c(OC)c32)c2cccc(O)c12 | F |
| O=c1c2cc(O)ccc2n2nnc3ccc(NCCNCCO)c1c32 | F |
| O=C1c2ccccc2C(=O)c2[nH]c(Cc3ccccc3F)nc21 | F |
| N#CC(C#N)=c1[nH]c2cccc3c2-c2c(cccc2c3=C(C#N)C#N)[nH]1 | F |
| NC(=S)N/N=C1\CCCC\C1=C/c1ccccc1 | F |
| O=C1C2=C(CCC2)Nc2cccc3ncn1c23 | F |
| CN(C)CCCNC(=O)c1cccc2ccccc12 | F |
| CC(=O)OC1COC(N2C(=O)C(=O)c3cc(Br)ccc32)C(OC(C)=O)C1OC(C)=O (configuration not stated) | F |
| CC1CC[C@]2(C(=O)O)CCC3(COC(=O)/C=C\c4ccc(O)cc4)C(=CCC4[C@@]5(C)CC[C@H](O)C(C)(C)C5CC[C@]43C)[C@@H]2[C@H]1C (some centres not stated) | F |
| O=C1CC(c2ccc(Cl)cc2)=Nc2ccccc2N1 | F |
